The reported measurements were obtained from PubChem BioAssay (NCI).

Assay: NCI Yeast Anticancer Drug Screen. Data for the rad50 strain (AID 155);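 note: 0% = growth of vehicle-only cultures of the same strain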
Settings: S. cerevisiae rad50 strain growth inhibition; at 50.0 µM (retest, dose inferred, filed as 5.0); hits give high values
Compounds without any hit were thinned out: in the full panel of roughly 79,000, 15% have a hit. Where a SMILES comes first, the peptide text is derived from it. The star is where a group is joined. Boc = CC(C)(C)OC(=O)*; OBn = c1ccc(CO*)cc1; Bn = c1ccc(C*)cc1
Quick reference: growth inhibition of the listed items.
Write the number in % without appending the unit.

The cases that follow already have their growth inhibition on record.
[
  {
    "compound": "CC(=O)Nc1ccc2c(c1)[nH]c(=O)c1cc(Cl)ccc12",
    "growth inhibition (%)": 96
  },
  {
    "compound": "O=C(O)C(Br)C(Br)c1ccccc1[N+](=O)[O-] (stereo not drawn)",
    "growth inhibition (%)": 81
  },
  {
    "compound": "NC(=O)c1nnn(Cc2cc(Cl)c(C(=O)c3ccc(Cl)cc3)c(Cl)c2)c1N",
    "growth inhibition (%)": 98
  }
]

Form field growth inhibition, entry `O=C(NCCCNCCNC(=O)c1cc(-c2ccccc2)nc2ccccc12)c1cc(-c2ccccc2)nc2ccccc12` : 93

Form field growth inhibition, entry `NC(=Nc1cc2ccccc2c2ccccc12)/N=C(/N)Nc1cc2ccccc2c2ccccc12` : 97

Form field growth inhibition, entry COc1ccc(NC(=O)CCC(NS(=O)(=O)c2ccc(C)cc2)C(=O)O)cc1 (stereo not drawn) : -3

Form field growth inhibition, entry `c1ccc(C[n+]2cccc(-c3cc4ccccc4[nH]3)c2)cc1` : 14

Form field growth inhibition, entry O=C1C=CC(=Nc2cc3c(cc2Br)-c2ccccc2C3Br)O1 (stereo not drawn) : 99

Form field growth inhibition, entry C[N+]12CC3C4CC(C3C1)C2C4 (stereo not drawn) : -27

Form field growth inhibition, entry `CCOC(=O)/C(=C/c1ccc2ccccc2c1)P(=O)(OCC)OCC` : -15

Form field growth inhibition, entry CC(C)CC(NC(=O)C(Cc1ccccc1)NC(=O)C(COCc1ccccc1)NC(=O)OC(C)(C)C)C(=O)OCc1ccccc1 (stereo not drawn) (Boc-Ser(Bn)-Phe-Leu-OBn; configuration not given here) : 13

Form field growth inhibition, entry `O=Cc1ccc(O)c2ccccc12` : 66
